Experiment: yeast 75Q aggregation reduction – 75Q-TubU reporter (AID 1593)
Conditions: Yeast 75Q polyglutamine aggregation reporter
Listed here are compounds together with their documented score.
measureName: score

compound	reading
CN(C)CCC=C1c2ccccc2C=Cc2ccccc21	1.44
Cc1cc(=O)[nH]c(=S)[nH]1	1.08
CN(C)c1ccc(C(=C2C=CC(=[N+](C)C)C=C2)c2ccc(N(C)C)cc2)cc1	-6.36
CCC(=O)O[C@H]1[C@H](O[C@@H]2[C@@H](C)[C@H](O[C@H]3C[C@@](C)(OC)[C@@H](O)[C@H](C)O3)[C@@H](C)C(=O)O[C@H](CC)[C@@](C)(O)[C@H](O)[C@@H](C)C(=O)[C@H](C)C[C@@]2(C)O)O[C@H](C)C[C@@H]1N(C)C	-0.96
CC[N+](CC)(CC)CCOc1cccc(OCC[N+](CC)(CC)CC)c1OCC[N+](CC)(CC)CC	1.11
CCC1(C)CC(=O)NC1=O (stereo unspecified)	1.25
Oc1ccc(Cl)cc1Cc1cc(Cl)ccc1O	-0.49
CCCCOc1ccc(OCCCN2CCOCC2)cc1	1.09
Cc1cc(O)cc(C)c1Cl	0.53
O=C1C(O)=C(O)C(=O)C(O)=C1O	0.92
CN1CCCN=C1COC(=O)C(O)(c1ccccc1)C1CCCCC1 (stereo unspecified)	1.24

====

Target: 6-phosphogluconate dehydrogenase, decarboxylating (Homo sapiens)
Assay: inhibition of human phosphogluconate dehydrogenase – biochemical, recombinant enzyme, NADPH absorbance, primary screen (AID 1159550)
Settings: recombinant 6PGD, NADPH absorbance 341 nm; at 10 µM; stronger effect = higher value
measureName: inhibition (%)

compound	testedOn	measureName	reading
COC(=O)Nc1nc2ccc(S(=O)c3ccccc3)cc2[nH]1 (configuration not stated)	6-phosphogluconate dehydrogenase, decarboxylating (Homo sapiens)	inhibition	17.4
NNc1nncc2ccccc12	6-phosphogluconate dehydrogenase, decarboxylating (Homo sapiens)	inhibition	15.4
N[C@@H](Cc1ccc(O)c(O)c1)C(=O)O	6-phosphogluconate dehydrogenase, decarboxylating (Homo sapiens)	inhibition	2.07
Cc1ccccc1N1C(=O)c2cc(S(N)(=O)=O)c(Cl)cc2NC1C (configuration not stated)	6-phosphogluconate dehydrogenase, decarboxylating (Homo sapiens)	inhibition	-11.8
CC(=O)OCC1=C(C(=O)O)N2C(=O)[C@@H](NC(=O)Cc3cccs3)[C@H]2SC1	6-phosphogluconate dehydrogenase, decarboxylating (Homo sapiens)	inhibition	4.29
Cc1c(N(C)CS(=O)(=O)O)c(=O)n(-c2ccccc2)n1C	6-phosphogluconate dehydrogenase, decarboxylating (Homo sapiens)	inhibition	19.3
C[N+]12CCC(CC1)C(OC(=O)C(O)(c1ccccc1)c1ccccc1)C2 (configuration not stated)	6-phosphogluconate dehydrogenase, decarboxylating (Homo sapiens)	inhibition	11.7
CN1CCOC(c2ccccc2)c2ccccc2C1 (configuration not stated)	6-phosphogluconate dehydrogenase, decarboxylating (Homo sapiens)	inhibition	5.09
CC(=O)Nc1ccc(S(=O)(=O)Nc2ccc([N+](=O)[O-])cc2)cc1	6-phosphogluconate dehydrogenase, decarboxylating (Homo sapiens)	inhibition	0.544
COc1ccc(C(=O)c2ccccc2)c(O)c1	6-phosphogluconate dehydrogenase, decarboxylating (Homo sapiens)	inhibition	-7.36
CCN(CC)CCNC(=O)c1cc(Br)c(N)cc1OC	6-phosphogluconate dehydrogenase, decarboxylating (Homo sapiens)	inhibition	12.4
C=CCc1ccc(O)c(OC)c1	6-phosphogluconate dehydrogenase, decarboxylating (Homo sapiens)	inhibition	-3.83

====

Assay: blockers of polyQ-driven CASP3 activation – cell-based (AID 1583)
Conditions: polyglutamine-induced caspase-3 activation, cell assay; stronger effect = higher value; concentration not given here
Lab note: anything with inhibition at or over 20% counts as label 1; the rest go in label 0.

compound	className
CC1=C(C(=O)O)N2C(=O)[C@@H](NC(=O)[C@H](N)C3=CCC=CC3)[C@H]2SC1	label 0
C=Cc1c(C)c2cc3[nH]c(cc4nc(cc5nc(cc1[nH]2)C(C)=C5CCC(=O)O)C(CCC(=O)O)=C4C)c(C)c3C=C	label 1
CCCN(CCC)C(=O)C(CCC(=O)O)NC(=O)c1ccccc1 (stereo not given)	label 0
CC(C)(C)CC(C)(C)c1ccc(O)c(Cc2ccc(Cl)cc2Cl)c1	label 1
COc1cc(C(=O)NCc2ccc(OCCN(C)C)cc2)cc(OC)c1OC	label 0

====

Assay: growth inhibition, MDA-MB-436, cell-based, BGB or cisplatin combos, synergistic combos for chromothripsis tumors (AID 1671458);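 also: cells exposed for 96 hours; 0% = vehicle DMSO and 100% = killing by high DMSO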
Conditions: MDA-MB-436 breast carcinoma growth inhibition, drug combinations; measured here: cisplatin combination; at 5 µM; stronger effect = higher value
Hi all, reminder that labels come from inhibition, split as lowest: < -10%; middle: ≥ -10% and < 20%; highest: ≥ 20%

chemicalString	className
C[C@H]1COc2c(C3(N)CC3)c(F)cc3c(=O)c(C(=O)O)cn1c23	middle
O=c1oc2c(O)c(O)cc3c(=O)oc4c(O)c(O)cc1c4c23	lowest
Nc1nc2c(ncn2COC(CO)CO)c(=O)[nH]1	highest
O=c1c(O)c(-c2ccc(O)c(O)c2)oc2cc(O)cc(O)c12	middle
Nc1nc(=S)c2[nH]cnc2[nH]1	highest
Nc1[nH]c(=O)ncc1F	lowest
O=C(O)CCCCCCCC(=O)O	lowest
O=C(O)P(=O)(O)O	lowest
CN(C)c1ccc(C(=C2C=CC(=[N+](C)C)C=C2)c2ccc(N(C)C)cc2)cc1	highest

====

Listed here are compounds together with their documented inhibition.
Assay: growth inhibition, MDA-MB-436, cell-based, BGB or cisplatin combos, synergistic combos for chromothripsis tumors (AID 1671458);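 also: cells exposed for 96 hours; 0% = vehicle DMSO and 100% = killing by high DMSO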
Details: MDA-MB-436 breast carcinoma growth inhibition, drug combinations; measured here: cisplatin combination; at 0.5 µM; stronger effect = higher value

compound	inhibition [%]
Nc1[nH]c(=O)ncc1F	-54.4
Cc1ccnc2c1NC(=O)c1cccnc1N2C1CC1	-29.5
Nc1nc(=S)c2[nH]cnc2[nH]1	11.9
CN(C)c1ccc(C(=C2C=CC(=[N+](C)C)C=C2)c2ccc(N(C)C)cc2)cc1	80.1
CC(N)C12CC3CC(CC(C3)C1)C2 (configuration not stated)	-60.5
O=C(O)CCCCCCCC(=O)O	-37.4
O=NN(CCCl)C(=O)NCCCl	-2.04
Cc1oncc1C(=O)Nc1ccc(C(F)(F)F)cc1	-7.42
CCN1CCN(c2cc3c(cc2F)c(=O)c(C(=O)O)cn3C2CC2)CC1	-56.8
Nc1nc2c(ncn2COC(CO)CO)c(=O)[nH]1	-7.9
CCn1cc(C(=O)O)c(=O)c2cc3c(cc21)OCO3	-20.7
Cc1nc2ccc(CN(C)c3ccc(C(=O)N[C@@H](CCC(=O)O)C(=O)O)s3)cc2c(=O)[nH]1	47.7

====

Assay: growth inhibition, single agents and combos, LFS_MB_1R, cell-based, cisplatin or BGB combos, synergistic combos for chromothripsis tumors (AID 1671452);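 also: cells exposed for 96 hours before readout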
Conditions: LFS_MB_1R medulloblastoma cells, measured here: combination with cisplatin, at 5 µM, stronger effect = higher value
measureName: inhibition (%)

compound	measureName	measurementUnits	reading
Cc1ccnc2c1NC(=O)c1cccnc1N2C1CC1	inhibition	%	29.5
Nc1[nH]c(=O)ncc1F	inhibition	%	-0.132
O=C(O)P(=O)(O)O	inhibition	%	-40.9
O=c1oc2c(O)c(O)cc3c(=O)oc4c(O)c(O)cc1c4c23	inhibition	%	-1.35
O=C(O)CCCCCCCC(=O)O	inhibition	%	-71.3
Cc1oncc1C(=O)Nc1ccc(C(F)(F)F)cc1	inhibition	%	-31
NC(=O)NO	inhibition	%	27.3
CCN1CCN(c2cc3c(cc2F)c(=O)c(C(=O)O)cn3C2CC2)CC1	inhibition	%	-5.5
CN(C)c1ccc(C(=C2C=CC(=[N+](C)C)C=C2)c2ccc(N(C)C)cc2)cc1	inhibition	%	104
CCn1cc(C(=O)O)c(=O)c2cc3c(cc21)OCO3	inhibition	%	-5.64
CC(N)C12CC3CC(CC(C3)C1)C2 (stereo not drawn)	inhibition	%	-25.5
C[C@H]1COc2c(C3(N)CC3)c(F)cc3c(=O)c(C(=O)O)cn1c23	inhibition	%	-29.7
Nc1nc2c(ncn2COC(CO)CO)c(=O)[nH]1	inhibition	%	106

====

Experiment: growth inhibition, single agents and combos, ICB984, cell-based, cisplatin or BGB combos, synergistic combos for chromothripsis tumors (AID 1671451);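 also: cells exposed for 96 hours before readout; 0% = vehicle DMSO and 100% = killing by high DMSO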
Conditions: ICB984 medulloblastoma cells, drug combinations, measured here: 5 uM single agent, at 5 µM, stronger effect = higher value

compound	inhibition / %
Nc1nc2c(ncn2COC(CO)CO)c(=O)[nH]1	-6.09
O=C(O)CCCCCCCC(=O)O	-20.6
C[C@H]1COc2c(C3(N)CC3)c(F)cc3c(=O)c(C(=O)O)cn1c23	-29.9
Cc1nc2ccc(CN(C)c3ccc(C(=O)N[C@@H](CCC(=O)O)C(=O)O)s3)cc2c(=O)[nH]1	-8.4
O=NN(CCCl)C(=O)NCCCl	-15.7
CCN1CCN(c2cc3c(cc2F)c(=O)c(C(=O)O)cn3C2CC2)CC1	-24
NC(=O)NO	-13.7
Nc1[nH]c(=O)ncc1F	-3.48
Nc1nc(=S)c2[nH]cnc2[nH]1	-9.37
Cc1ccnc2c1NC(=O)c1cccnc1N2C1CC1	-28.4
CCn1cc(C(=O)O)c(=O)c2cc3c(cc21)OCO3	-34.2
CN(C)c1ccc(C(=C2C=CC(=[N+](C)C)C=C2)c2ccc(N(C)C)cc2)cc1	6.83
CC(N)C12CC3CC(CC(C3)C1)C2 (stereo not given)	12.3
O=C(O)P(=O)(O)O	-14.5
O=c1oc2c(O)c(O)cc3c(=O)oc4c(O)c(O)cc1c4c23	-15.6
